measured-on: human 5-HT2C receptor (Homo sapiens, UniProt P28335)
Sequence (P28335 33-458): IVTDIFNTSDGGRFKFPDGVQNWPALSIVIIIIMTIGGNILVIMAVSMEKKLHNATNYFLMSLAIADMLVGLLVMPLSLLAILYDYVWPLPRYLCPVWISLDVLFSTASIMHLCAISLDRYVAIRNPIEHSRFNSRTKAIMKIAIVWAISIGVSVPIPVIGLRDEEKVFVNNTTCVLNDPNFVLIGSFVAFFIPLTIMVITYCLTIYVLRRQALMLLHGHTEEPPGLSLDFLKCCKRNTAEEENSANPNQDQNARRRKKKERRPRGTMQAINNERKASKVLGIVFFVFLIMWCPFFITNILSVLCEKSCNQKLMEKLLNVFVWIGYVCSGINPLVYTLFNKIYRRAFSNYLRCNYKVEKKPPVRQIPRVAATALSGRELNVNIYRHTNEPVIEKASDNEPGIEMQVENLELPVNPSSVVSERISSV
procedure-details: 5-HT2C receptor-stimulated calcium mobilization (FLIPR) in CHO cells;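 further: Fluo-3-AM fluorescence read on FLIPR every 1 s, agonist added after 10 baseline reads, response taken as peak minus lowest raw fluorescence count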
Format: cell-based
run-parameters: calcium mobilization, CHO cells stably expressing human 5-HT2C; read-out: 5-HT2C Function EC50
pEC50: −log10 of the molar value.
measured-attribute: pEC50

>>> quantitative_readout("CNCC1Cc2cc(Cl)cc(-c3cccc(OC)c3OC)c2O1 (racemic) [Example 466]")
7.26
>>> quantitative_readout("CNCC1Cc2cc(F)cc(-c3cccc(OC)c3OC)c2O1 (single isomer, unassigned; (-)) [Example 568]")
8.40
>>> quantitative_readout("COc1ccc(-c2cccc3c2OC(CN)C3)cc1 (single isomer, unassigned; (-)) [Example 81]")
6.53
>>> quantitative_readout("COc1cc2c(c(-c3cc(C)ccc3C)c1)OC(CN)C2 (racemic) [Example 370]")
6.72
>>> quantitative_readout("CNCC1Cc2cccc(-c3cccc(F)c3)c2O1 (racemic) [Example 415]")
6.96
>>> quantitative_readout("CNCC1Cc2cc(Cl)cc(-c3ccc(Cl)cc3Cl)c2O1 (racemic) [Example 468]")
7.14
>>> quantitative_readout("CNCC1Cc2cccc(-c3cc(Cl)ccc3Cl)c2O1 (racemic) [Example 429]")
7.80
>>> quantitative_readout("NCC1Cc2ccc(F)c(-c3ccccc3Cl)c2O1 (racemic) [Example 398]")
10.00
